Species: Rattus norvegicus
assay-notes: Open TG-GATES - Regimen: Single
Type: toxicity, organism-based, Sprague-Dawley
Parameters: regimen Single, gender Male, age 6 weeks
experimental-setup: in vivo, po, 0 mg/kg, 24 h, tissue Blood, route gavage, dose level Control
Listed here are molecules together with their documented Plat.
Provide a numeric answer, followed by its unit.

Ask | Given COc1ccc(Cl)cc1C(=O)NCCc1ccc(S(=O)(=O)NC(=O)NC2CCCCC2)cc1 [GLYBURIDE] , respond with its Plat.
Reply | 126.2 x10_4/uL

Ask | Let me know recorded Plat for "O=C1NC(=O)C(c2ccccc2)(c2ccccc2)N1" , thanks.
Reply | 121.9 x10_4/uL

Ask | Give a short answer stating reported Plat for S=C=Nc1cccc2ccccc12 [1-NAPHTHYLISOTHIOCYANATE] .
Reply | 128.7 x10_4/uL
